Taken from the supplement of paper PMC10201428.

System: VchCAST RNA-guided transposition machinery (E. coli BL21(DE3) host, lacZ target)
Protocol notes: relative integration efficiency (T-LR orientation) vs wild-type transposon end (log2 (normalized fold change)); transposon end mutated: right end (5 bp flank + 75 bp right end); higher = more efficient transposition
relative integration efficiency (log2) values, listed per item
Experimental readout: relative integration efficiency (log2)

INSERT INTO measurements (record_sequence, target_under_test, reading) VALUES
  ('ACATTTGTTGATACCCCCATAAAATGATAATTACACCCATAAATTGATAATTATCACACCCATAAATTGATATTGCCTCTGATCATAGTCAGACCAACATTGCTACGACCCGTATTCGCACCGACAC', 'VchCAST RNA-guided transposition machinery (E. coli BL21(DE3) host, lacZ target)', -0.879),
  ('ACATTTGTTGACAACCATAAAATGATAATTACACCCATAAATTGATAATTATCACACCCATAAATTGATATTGCCTCTGATCATAGTCAGACCAACATTGCTACGACCCGTATTCGCACCGACACTG', 'VchCAST RNA-guided transposition machinery (E. coli BL21(DE3) host, lacZ target)', -6.81),
  ('ACATTTGTTGATACAACCATAAAATGATATATACACCCATAAATTGATAATTATCACACCCATAAATTGATATTGCCTCTGATCATAGTCAGACCAACATTGCTACGACCCGTATTCGCACCGACAC', 'VchCAST RNA-guided transposition machinery (E. coli BL21(DE3) host, lacZ target)', 0.0362),
  ('ACATTTGTCGATACAACCCTAAAATGATAATTACACCCATAAATTGATCATTATCACCCCCAATTTAACTATAACGCTCTGATCATAGTCAGACCAACATTGCTACGACCCGTATTCGCACCGACAC', 'VchCAST RNA-guided transposition machinery (E. coli BL21(DE3) host, lacZ target)', 0.684),
  ('ACATTTGTTGATACAACCATAAGTTGATATTTTCAACCATAAAATGATAATTATCACAACCATATATTGATATCTCCTCTGATCATAGTCAGACCAACATTGCTACGACCCGTATTCGCACCGACAC', 'VchCAST RNA-guided transposition machinery (E. coli BL21(DE3) host, lacZ target)', 0.0384);
